These data points were gathered from PubChem BioAssay (NCI).

tested on: MOLT-4 leukemia; test: NCI-60 one-dose screen, 48 h; settings: 10 µM
The panel holds about 83,000 compounds, 20% with a hit somewhere; the sample as a whole holds those more often. Activity calls are given as the source filed them. Rule for the calls: active = growth percent below 10; inactive = the rest.
Write down one outcome, taken from active, inactive

Consider the worked cases shown below.
INSERT INTO results (molecule, qualitative_label) VALUES
  ('COc1ccc2c(c1)[n+]([O-])c(C#N)c(NC(=O)c1ccco1)[n+]2[O-]', 'inactive'),
  ('CC(=O)/C(=C/c1ccccc1)C(=O)CC(C)C', 'inactive'),
  ('O=S(=O)(NCCCNc1nccc(-c2c(-c3ccc(F)cc3)nc3sccn23)n1)c1ccc(F)cc1', 'inactive');

## Input Could you please tell me the result logged for COc1cc(C(=O)N2CCN(c3ccccc3OC)CC2)c(N)cc1OCCCN1CCN(c2ccccc2OC)CC1 in this assay?
## Output inactive

## Input Could you please tell me the result logged for COc1ccc(-c2nc(-c3nc4cc(Cl)c(Cl)cc4[nH]3)c3ccccn23)cc1 in this assay?
## Output inactive

## Input Could you please tell me the result logged for CC/C(C)=C(\C)C(=O)O in this assay?
## Output inactive

## Input Could you please tell me the result logged for CC(C)=NNc1ncnc2c1ncn2C1OC(CO)C(O)C1O (configuration not stated) in this assay?
## Output inactive

## Input Could you please tell me the result logged for COc1ccc2c(c1)N(CCO)C1=C(C(=O)OC1)C2c1ccc(OC)c(OC)c1 (configuration not stated) in this assay?
## Output inactive

## Input Could you please tell me the result logged for COc1ccc(Nc2ncnc3c2c(SC)nn3-c2ccccc2)cc1 in this assay?
## Output inactive

## Input Could you please tell me the result logged for CN(C)CC(O)c1ccc2cc(Br)c3ccccc3c2c1 (configuration not stated) in this assay?
## Output inactive

## Input Could you please tell me the result logged for CN(C)CCNC(=O)c1cccn2c(=O)c3cc4ccccc4cc3nc12 in this assay?
## Output active

## Input Could you please tell me the result logged for CC1(C)Cc2c(sc3ncn4nc(-c5ccc(O)cc5)nc4c23)CO1 in this assay?
## Output inactive

## Input Could you please tell me the result logged for Nc1ccc2c(c1)Cc1cc(N)c(Br)cc1-2 in this assay?
## Output inactive

## Input Could you please tell me the result logged for COc1cc2cc3c(nc2cc1OC)CCN3Cc1ccc(NC(=O)c2ccc(Cl)c(C(F)(F)F)c2)cc1 in this assay?
## Output inactive

## Input Could you please tell me the result logged for COc1ccc([N+](=O)[O-])c(C(=O)O)c1 in this assay?
## Output inactive

## Input Could you please tell me the result logged for O=C(Nc1cccc(-n2cc(-c3ccncc3)c(-c3cc(O)cc(Cl)c3)n2)c1)c1cc(C(F)(F)F)cc(C(F)(F)F)c1 in this assay?
## Output inactive

* * *

system: HT29 colon; experiment: NCI-60 one-dose screen, 48 h (100 = growth as untreated, 0 = no growth, -100 = all killed); conditions: 10 µM
About 83,000 compounds went through this panel and 20% of them were active in at least one assay; those are over-represented in the sample as a whole.
Binary classification by growth, with 90% as an inclusive lower bound for yes; all other cases are no.

INSERT INTO results (compound_smiles, qualitative_label) VALUES
  ('CCOC(=O)c1ccc(NC(=O)Nc2ncc(Cl)cc2Cl)cc1', 'yes'),
  ('COc1cc(-c2cc(/C=C/C(=O)c3ccc4c(c3)OCO4)[nH]n2)cc(OC)c1OC', 'no'),
  ('N=C(N)c1ccc(-c2ccc(-c3ccccc3)o2)nc1', 'no');

## Input Can O=C1/C(=C/c2ccc(Cl)cc2)SC(=Nc2ccc(Cl)cc2)N1Cc1nc2ccccc2[nH]1 be said to have growth at or above 90%?
## Output yes

## Input Can Cc1cccc(NC2=C(C#N)C(=O)NC3(CCCC3)S2)c1 be said to have growth at or above 90%?
## Output yes

## Input Can CC(=O)c1nc2ccccc2n1CCN1CCN(C)CC1 be said to have growth at or above 90%?
## Output no

## Input Can C=C(Cl)[C@@](Cl)(CBr)CC[C@@H](Br)C(C)(C)Cl be said to have growth at or above 90%?
## Output no

## Input Can COc1cc(/C=N/NC(=O)c2ccccc2Nc2cccc(C(F)(F)F)c2)cc(OC)c1OC be said to have growth at or above 90%?
## Output no

## Input Can CCC(=O)N1C/C(=C/c2ccc(Cl)cc2)C(=O)/C(=C/c2ccc(Cl)cc2)C1 be said to have growth at or above 90%?
## Output no
